Biological target: cytochrome c oxidase (CcO) purified from heart mitochondria (Bos taurus, UniProt P00396+P07471+P68530)
Construct: Cytochrome c oxidase was purified from the heart mitochondria of Bos taurus; from tissue; host or cells: bovine heart mitochondria
Test: Cytochrome oxidase activity of solubilized mitochondrial CcO (oxygen uptake)
Type: biochemical
Conditions: solubilized mitochondrial CcO; intercept of linear dependence of Ki(app) on [DM]; read-out: true Ki (extrapolation of DM to zero)
MEASURED PARAMETER: Ki (µM)
Enter your answer as a number in µM; do not include the unit.

GET /values?readout=Ki&item= Ac-RTKLWEMLVELGNMDKAVKLWRKLKR-NH2 [P4]
3

Reference source for all entries: paper PMC9961948
